Target: Voltage-gated inwardly rectifying potassium channel KCNH2 (Homo sapiens) (UniProt Q12809)
Sequence (Q12809 whole entry, looked up): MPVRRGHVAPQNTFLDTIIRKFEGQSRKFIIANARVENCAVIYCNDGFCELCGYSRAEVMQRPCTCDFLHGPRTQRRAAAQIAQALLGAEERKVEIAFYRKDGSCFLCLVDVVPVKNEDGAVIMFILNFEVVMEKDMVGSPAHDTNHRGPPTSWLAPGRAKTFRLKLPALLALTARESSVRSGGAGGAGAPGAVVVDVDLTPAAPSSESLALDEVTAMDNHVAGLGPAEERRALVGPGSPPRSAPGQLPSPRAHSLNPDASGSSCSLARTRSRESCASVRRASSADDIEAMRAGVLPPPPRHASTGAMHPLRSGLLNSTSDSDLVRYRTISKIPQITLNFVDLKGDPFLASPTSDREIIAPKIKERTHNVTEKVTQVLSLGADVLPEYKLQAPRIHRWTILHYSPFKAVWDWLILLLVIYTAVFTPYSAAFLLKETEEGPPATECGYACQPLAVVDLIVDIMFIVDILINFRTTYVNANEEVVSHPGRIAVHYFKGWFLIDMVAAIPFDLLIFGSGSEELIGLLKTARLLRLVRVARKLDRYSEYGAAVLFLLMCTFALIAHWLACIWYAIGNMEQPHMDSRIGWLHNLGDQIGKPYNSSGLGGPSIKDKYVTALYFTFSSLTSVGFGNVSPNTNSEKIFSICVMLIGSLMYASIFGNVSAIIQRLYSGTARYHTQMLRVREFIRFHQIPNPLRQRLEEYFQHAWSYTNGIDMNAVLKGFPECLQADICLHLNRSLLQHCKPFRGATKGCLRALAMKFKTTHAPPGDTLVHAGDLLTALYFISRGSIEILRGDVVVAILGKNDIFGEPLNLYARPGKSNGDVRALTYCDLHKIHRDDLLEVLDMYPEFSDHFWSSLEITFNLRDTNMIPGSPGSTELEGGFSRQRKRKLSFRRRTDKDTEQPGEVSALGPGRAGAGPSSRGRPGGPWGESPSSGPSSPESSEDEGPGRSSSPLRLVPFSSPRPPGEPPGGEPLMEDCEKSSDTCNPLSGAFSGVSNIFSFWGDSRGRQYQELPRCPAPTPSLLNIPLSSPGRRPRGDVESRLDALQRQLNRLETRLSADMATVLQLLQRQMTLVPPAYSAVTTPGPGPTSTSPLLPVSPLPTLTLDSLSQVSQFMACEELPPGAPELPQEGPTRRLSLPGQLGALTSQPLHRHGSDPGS
Assay: KCNH2 potassium channel function modulators, cell-based (AID 376);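 also: 0% = buffer alone and 100% = reference blocker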
Details: hERG-expressing cells, channel activity single-concentration screen; concentration not given here
About 250 (12%) of roughly 2,000 compounds were called active. The full list was thinned out, with actives kept by preference.
Reported Metric: hERG blockade (%)
Write the value in % as a bare number.

[in] What is its hERG blockade for Voltage-gated inwardly rectifying potassium channel KCNH2 (Homo sapiens) (UniProt Q12809)? Entry: `CN=C(N)N=C(N)Nc1cc2ccccc2c2ccccc12`
[out] -54.4

[in] Now the compound `O=S(=O)(c1cnccc1N1CCN(CCO)CC1)N1CCCC1`
[out] -8.49

[in] Now the compound CC(O)(c1ccccc1)c1nccc2ccccc12 (stereo unspecified)
[out] 0.101

Others:
[in] What is its hERG blockade for Voltage-gated inwardly rectifying potassium channel KCNH2 (Homo sapiens) (UniProt Q12809)? Entry: `O=C(O)c1ccc(C(=O)O)c2c(C(=O)O)ccc(C(=O)O)c12`
[out] -5.21

[in] Now the compound OCC(O)C(O)C(O)C(O)c1nc2ccc(Cl)cc2[nH]1 (stereo unspecified)
[out] 3.95

[in] Now the compound `Oc1c(C(O)(c2ccccc2)c2ccc3ccccc3c2O)ccc2ccccc12`
[out] 50.7

[in] Now the compound CC(CC(N)C(=O)O)C(=O)O (stereo unspecified)
[out] 1.62

[in] Now the compound O=C(O)C(Cc1ccccc1)N1C(=O)c2ccccc2C1=O (stereo unspecified)
[out] 13.1

[in] Now the compound CC(CN(C)C)C(O)(c1ccccc1)c1ccccc1 (stereo unspecified)
[out] 7.73

[in] Now the compound `O=C(O)c1c[nH]c2cc(OCc3ccccc3)ccc2c1=O`
[out] 6.26

[in] Now the compound `COc1ccc2c(c1)[n+]([O-])c(C(C)=NNC(N)=S)c(C)[n+]2[O-]`
[out] -7.37

[in] Now the compound NC1C2C(CC(=O)O)OCC=C3CN4CCC1(C(=O)C(=O)O)C4CC32 (stereo unspecified)
[out] 13

[in] Now the compound O=C1CC2OCC=C3CN4CCC5(C(=O)O)C(N1)C2C3CC45 (stereo unspecified)
[out] -10.2

[in] Now the compound `CN(C)CCCNc1ncnc2nc[nH]c12`
[out] 3.18

[in] Now the compound `O=C(O)c1ccc(S(=O)(=O)N=Nc2c(O)[nH]c3ccccc23)cc1`
[out] -4.01
